# EC50 listing for each entry below
test system: monocistronic NK5.1 HCV replicon in Huh7 cells; assay: HCV replicon assay, monocistronic replicon cell line; assay type: cell-based, hepatitis C virus; conditions: Hepatitis C virus, Huh-7; monocistronic NK5.1 HCV replicon in Huh7 cells; median value; read-out: Mono EC50 Median
parameter.measured: EC50

{"columns": ["smiles", "assayed.system", "test.value"],
 "data": [
  ["CCN(CC)c1ccc(-c2nc(-c3ccccn3)n[nH]2)c(O)c1", "monocistronic NK5.1 HCV replicon in Huh7 cells", "> 32 µM"],
  ["COc1cccc(-c2nc(-c3cnccc3C(F)(F)F)n[nH]2)c1", "monocistronic NK5.1 HCV replicon in Huh7 cells", "> 19 µM"],
  ["COc1ccc(OC)c(-c2nc(-c3nccc4ccccc34)n[nH]2)c1", "monocistronic NK5.1 HCV replicon in Huh7 cells", "> 19 µM"],
  ["Cc1cccc(-c2n[nH]c(-c3ccccc3O)n2)n1", "monocistronic NK5.1 HCV replicon in Huh7 cells", "> 19 µM"],
  ["Fc1ccccc1-c1nnc(-c2ccccc2)o1", "monocistronic NK5.1 HCV replicon in Huh7 cells", "> 32 µM"]
]}

###

# pEC50 listing for each entry below
test system: monocistronic NK5.1 HCV replicon in Huh7 cells; experiment: HCV replicon assay, monocistronic replicon cell line; format: cell-based, hepatitis C virus; details: Hepatitis C virus, Huh-7; monocistronic NK5.1 HCV replicon in Huh7 cells; median value; read-out: Mono EC50 Median
pEC50: −log10 of the molar value.
parameter.measured: pEC50

{"columns": ["smiles", "test.value"],
 "data": [
  ["COc1ccc(F)c(-c2nc(-c3ncccc3C)n[nH]2)c1", "< 4.49"],
  ["Cc1cccc(-c2n[nH]c(-c3cc(Br)ccc3O)n2)n1", "< 4.72"],
  ["Cc1cccc(-c2n[nH]c(-c3ccc(Br)cc3)n2)n1", "< 4.49"],
  ["Cc1cccc(-c2n[nH]c(-c3ccccc3Br)n2)n1", "< 4.49"]
]}

###

test system: monocistronic NK5.1 HCV replicon in Huh7 cells; assay: HCV replicon assay, monocistronic replicon cell line; assay type: cell-based, hepatitis C virus; details: Hepatitis C virus, Huh-7, 72 h; table T3 (compounds 471-640); monocistronic replicon in Huh7 cells, 3 days incubation, HCV RNA/GAPDH RNA by TaqMan RT-PCR; read-out: Mono EC50 Median
parameter.measured: EC50

{"columns": ["compound", "assayed.system", "test.value"],
 "data": [
  ["c1ccc(-c2ncn(-c3ccccn3)n2)nc1 [Compound 639]", "monocistronic NK5.1 HCV replicon in Huh7 cells", "> 32 µM"],
  ["COc1ccc(-c2nc(-c3ncccn3)n[nH]2)c(O)c1 [Compound 568]", "monocistronic NK5.1 HCV replicon in Huh7 cells", "> 32 µM"],
  ["O=[N+]([O-])c1cccc(-c2nc(-c3ccc(C(F)(F)F)cn3)n[nH]2)c1 [Compound 520]", "monocistronic NK5.1 HCV replicon in Huh7 cells", "> 19 µM"],
  ["Oc1ccc(Cl)cc1-c1nc(-c2ccc(C(F)(F)F)cn2)n[nH]1 [Compound 511]", "monocistronic NK5.1 HCV replicon in Huh7 cells", "> 19 µM"],
  ["Nc1ccc(-c2n[nH]c(-c3cc(Br)ccc3O)n2)nc1 [Compound 592]", "monocistronic NK5.1 HCV replicon in Huh7 cells", "> 32 µM"],
  ["Oc1ccccc1-c1nc(-c2ncccn2)n[nH]1 [Compound 569]", "monocistronic NK5.1 HCV replicon in Huh7 cells", "> 32 µM"],
  ["Oc1c(-c2nc(-c3ncccn3)n[nH]2)ccc2ccccc12 [Compound 574]", "monocistronic NK5.1 HCV replicon in Huh7 cells", "> 32 µM"],
  ["FC(F)(F)c1ccc(-c2n[nH]c(-c3c(Cl)cccc3Cl)n2)nc1 [Compound 527]", "monocistronic NK5.1 HCV replicon in Huh7 cells", "> 19 µM"],
  ["Oc1cc(OCc2ccccc2)ccc1-c1nc(-c2cnccn2)n[nH]1 [Compound 581]", "monocistronic NK5.1 HCV replicon in Huh7 cells", "> 32 µM"],
  ["COc1cccc(-c2nc(-c3cnccn3)n[nH]2)c1O [Compound 586]", "monocistronic NK5.1 HCV replicon in Huh7 cells", "> 32 µM"],
  ["O=[N+]([O-])c1ccc(O)c(-c2nc(-c3ncccc3Br)n[nH]2)c1 [Compound 485]", "monocistronic NK5.1 HCV replicon in Huh7 cells", "> 19 µM"],
  ["COc1cccc(-c2nc(-c3ccc(C(F)(F)F)cn3)n[nH]2)c1O [Compound 519]", "monocistronic NK5.1 HCV replicon in Huh7 cells", "> 19 µM"],
  ["FC(F)(F)c1ccncc1-c1n[nH]c(-c2cccc(Br)c2)n1 [Compound 474]", "monocistronic NK5.1 HCV replicon in Huh7 cells", "> 32 µM"],
  ["FC(F)(F)c1ccc(-c2n[nH]c(-c3cccc4ccccc34)n2)nc1 [Compound 506]", "monocistronic NK5.1 HCV replicon in Huh7 cells", "> 19 µM"],
  ["Cn1nc(-c2ccccn2)nc1-c1ccccc1O [Compound 602]", "monocistronic NK5.1 HCV replicon in Huh7 cells", "> 32 µM"],
  ["COc1ccc(O)c(-c2nc(-c3ccc(C(F)(F)F)cn3)n[nH]2)c1 [Compound 510]", "monocistronic NK5.1 HCV replicon in Huh7 cells", "> 19 µM"],
  ["O=[N+]([O-])c1cccnc1-c1n[nH]c(-c2c(O)ccc3ccccc23)n1 [Compound 558]", "monocistronic NK5.1 HCV replicon in Huh7 cells", "> 3.2 µM"],
  ["COc1ccc(Br)cc1-c1nc(-c2ccc(C(F)(F)F)cn2)n[nH]1 [Compound 529]", "monocistronic NK5.1 HCV replicon in Huh7 cells", "> 19 µM"],
  ["Fc1cc(-c2nc(-c3ccc(C(F)(F)F)cn3)n[nH]2)ccc1-c1ccccc1 [Compound 514]", "monocistronic NK5.1 HCV replicon in Huh7 cells", "> 19 µM"],
  ["Fc1cccc(Cl)c1-c1nc(-c2cnccc2C(F)(F)F)n[nH]1 [Compound 479]", "monocistronic NK5.1 HCV replicon in Huh7 cells", "> 32 µM"],
  ["COc1cccc(-c2nc(-c3ncccc3Br)n[nH]2)c1 [Compound 500]", "monocistronic NK5.1 HCV replicon in Huh7 cells", "> 32 µM"]
]}

###

test system: monocistronic NK5.1 HCV replicon in Huh7 cells; assay: HCV replicon assay, monocistronic replicon cell line; format: cell-based, hepatitis C virus; conditions: Hepatitis C virus, Huh-7, 72 h; table T3 (compounds 471-640); monocistronic replicon in Huh7 cells, 3 days incubation, HCV RNA/GAPDH RNA by TaqMan RT-PCR; read-out: Mono EC50 Median

{"columns": ["smiles", "assayed.system", "EC50"],
 "data": [
  ["COc1ccc(F)c(-c2nc(-c3ncccc3Br)n[nH]2)c1", "monocistronic NK5.1 HCV replicon in Huh7 cells", "> 32 µM"],
  ["COc1ccc(F)c(-c2nc(-c3cnccc3C(F)(F)F)n[nH]2)c1", "monocistronic NK5.1 HCV replicon in Huh7 cells", "> 32 µM"],
  ["FC(F)(F)c1ccncc1-c1n[nH]c(-c2ccccc2Br)n1", "monocistronic NK5.1 HCV replicon in Huh7 cells", "> 32 µM"]
]}

###

test system: monocistronic NK5.1 HCV replicon in Huh7 cells; experiment: HCV replicon assay, monocistronic replicon cell line; format: cell-based, hepatitis C virus; conditions: Hepatitis C virus, Huh-7, 72 h; table T3 (compounds 471-640); monocistronic replicon in Huh7 cells, 3 days incubation, HCV RNA/GAPDH RNA by TaqMan RT-PCR; read-out: Mono EC50 Median
# EC50 listing for each entry below

{"columns": ["compound", "EC50"],
 "data": [
  ["Oc1ccc(F)cc1-c1nc(-c2ncccc2C(F)(F)F)n[nH]1 [Compound 533]", "> 19 µM"],
  ["O=[N+]([O-])c1cccnc1-c1n[nH]c(-c2cc(Br)ccc2O)n1 [Compound 556]", "> 3.2 µM"],
  ["COc1ccc(-c2nc(-c3ccc(C(F)(F)F)cn3)n[nH]2)c(O)c1 [Compound 517]", "> 19 µM"],
  ["CC(C)(C)c1ccc(O)c(-c2nc(-c3ncccn3)n[nH]2)c1 [Compound 559]", "> 32 µM"],
  ["Nc1cccnc1-c1n[nH]c(-c2c(O)ccc3ccccc23)n1 [Compound 557]", "> 3.2 µM"],
  ["CCOc1cccc(-c2nc(-c3ncccc3C(F)(F)F)n[nH]2)c1O [Compound 536]", "> 19 µM"],
  ["Oc1ccc(Br)cc1-c1nc(-c2ccc(C(F)(F)F)cn2)n[nH]1 [Compound 515]", "> 19 µM"],
  ["Oc1ccccc1-c1nc(-c2ncccc2C(F)(F)F)n[nH]1 [Compound 542]", "> 19 µM"],
  ["COc1ccc(-c2nc(-c3ncccc3Br)n[nH]2)c(O)c1 [Compound 494]", "> 32 µM"],
  ["Cc1ccc(O)c(-c2nc(-c3cnccn3)n[nH]2)c1 [Compound 583]", "> 32 µM"],
  ["Cc1ccc(O)c(-c2nc(-c3ncccn3)n[nH]2)c1 [Compound 567]", "> 32 µM"]
]}
